Assay Context: Table S3: compounds exhibiting low PAMPA-BBB permeability

{"Compound": "C=C/C(C)=C/[C@@]1(C)SC(=O)C(C)=C1O [NCGC00261593-01]", "PAMPA-BBB Pe(10^-6 cm/sec)": "<1 10^-6 cm/sec"}
{"Compound": "O=C(O)c1cc2ccccc2[nH]1 [NCGC00094957-03]", "PAMPA-BBB Pe(10^-6 cm/sec)": "<1 10^-6 cm/sec"}
{"Compound": "OC[C@H]1O[C@@H](Oc2cccc3ccccc23)[C@H](O)[C@@H](O)[C@H]1O [NCGC00351880-01]", "PAMPA-BBB Pe(10^-6 cm/sec)": "<1 10^-6 cm/sec"}
